Values from BindingDB's records for doi:10.1021/jm00042a007

- assay.target: Integrin alpha-IIb/beta-3 (Homo sapiens, UniProt P08514+P05106)
- Sequence (P05106 27-788 limits assumed): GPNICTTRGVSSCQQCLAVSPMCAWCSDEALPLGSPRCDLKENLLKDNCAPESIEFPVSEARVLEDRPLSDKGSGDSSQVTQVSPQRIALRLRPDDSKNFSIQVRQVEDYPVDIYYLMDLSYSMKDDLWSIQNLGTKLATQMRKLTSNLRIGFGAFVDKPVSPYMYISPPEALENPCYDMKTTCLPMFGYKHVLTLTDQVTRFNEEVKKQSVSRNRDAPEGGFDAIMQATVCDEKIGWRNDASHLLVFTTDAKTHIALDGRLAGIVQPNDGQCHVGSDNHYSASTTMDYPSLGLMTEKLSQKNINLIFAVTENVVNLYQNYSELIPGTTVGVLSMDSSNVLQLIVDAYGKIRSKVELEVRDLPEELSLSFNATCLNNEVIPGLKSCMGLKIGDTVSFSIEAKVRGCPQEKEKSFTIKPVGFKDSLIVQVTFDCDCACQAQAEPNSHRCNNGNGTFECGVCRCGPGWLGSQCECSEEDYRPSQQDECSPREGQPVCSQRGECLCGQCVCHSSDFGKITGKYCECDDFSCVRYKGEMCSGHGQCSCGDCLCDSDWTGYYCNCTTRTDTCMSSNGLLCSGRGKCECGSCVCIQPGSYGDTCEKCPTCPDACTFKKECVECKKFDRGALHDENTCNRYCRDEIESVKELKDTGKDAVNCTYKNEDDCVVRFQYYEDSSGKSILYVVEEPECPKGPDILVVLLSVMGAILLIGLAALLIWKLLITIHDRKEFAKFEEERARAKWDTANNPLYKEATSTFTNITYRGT
- Sequence (P08514 32-887 limits assumed): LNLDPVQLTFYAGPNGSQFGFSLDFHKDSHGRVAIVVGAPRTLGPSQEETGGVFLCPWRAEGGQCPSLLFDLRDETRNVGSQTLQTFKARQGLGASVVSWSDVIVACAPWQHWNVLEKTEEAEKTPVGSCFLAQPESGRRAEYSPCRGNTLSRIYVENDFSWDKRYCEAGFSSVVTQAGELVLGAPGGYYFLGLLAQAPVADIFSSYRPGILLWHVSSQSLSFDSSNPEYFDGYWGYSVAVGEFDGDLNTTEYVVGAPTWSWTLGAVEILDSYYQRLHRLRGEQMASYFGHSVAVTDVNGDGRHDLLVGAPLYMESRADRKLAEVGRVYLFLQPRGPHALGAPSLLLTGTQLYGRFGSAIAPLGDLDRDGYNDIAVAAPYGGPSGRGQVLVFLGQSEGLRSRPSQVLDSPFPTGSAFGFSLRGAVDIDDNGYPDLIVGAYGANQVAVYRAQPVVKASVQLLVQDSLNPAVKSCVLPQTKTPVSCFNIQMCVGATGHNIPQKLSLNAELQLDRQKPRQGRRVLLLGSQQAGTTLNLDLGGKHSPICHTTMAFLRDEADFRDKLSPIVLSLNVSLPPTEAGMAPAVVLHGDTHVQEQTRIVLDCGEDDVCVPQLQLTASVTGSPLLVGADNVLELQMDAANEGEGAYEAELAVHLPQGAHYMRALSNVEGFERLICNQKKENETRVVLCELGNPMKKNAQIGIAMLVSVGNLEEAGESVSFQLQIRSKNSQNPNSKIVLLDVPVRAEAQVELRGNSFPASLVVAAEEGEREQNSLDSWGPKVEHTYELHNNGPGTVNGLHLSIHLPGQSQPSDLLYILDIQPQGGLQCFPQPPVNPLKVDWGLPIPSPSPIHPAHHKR
- Sequence (P08514 891-1039 limits assumed): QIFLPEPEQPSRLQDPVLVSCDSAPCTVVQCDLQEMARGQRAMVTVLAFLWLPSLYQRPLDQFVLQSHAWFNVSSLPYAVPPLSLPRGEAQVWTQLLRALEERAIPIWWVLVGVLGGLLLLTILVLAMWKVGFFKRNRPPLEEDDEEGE
- test.method.notes: Inhibition of platelet aggregation as the concentration necessary to inhibit the change in light.
Bridge positions count the residues as written; N and C are the ends. Peptide text beside a SMILES is read from it.
readout.type: log10 of IC50 (log10 of the value in µM)
Response schema: value (number) is log10 of IC50 in units of µM.

1. NCCCCCCCCOc1ccc(C[C@H](NC(=O)OCc2ccccc2)C(=O)O)cc1 :: 1.58
2. O=C(O)[C@H](Cc1ccc(OCCCCC2CCNCC2)cc1)NS(=O)(=O)CCc1ccccc1 :: -1.54
3. N=C(N)NCCC[C@H](N)C(=O)NCC(=O)N[C@@H](CC(=O)O)C(=O)N[C@@H](Cc1c[nH]c2ccccc12)C(=O)O (H-RGDW-OH) :: 0.23

According to the records, this molecule `CS(=O)(=O)N[C@@H](Cc1ccc(OCCCCC2CCNCC2)cc1)C(=O)O` displays log10 of IC50 of -1.20

According to the records, this molecule `O=C(O)[C@H](Cc1ccc(OCCCCC2CCNCC2)cc1)NS(=O)(=O)c1ccccc1` displays log10 of IC50 of -1.74

According to the records, this molecule `O=C(N[C@@H](Cc1ccc(OC/C=C/CC2CCNCC2)cc1)C(=O)O)OCc1ccccc1` displays log10 of IC50 of -0.62

According to the records, this molecule `CC(=O)N[C@@H](Cc1ccc(OCCCCC2CCNCC2)cc1)C(=O)O` displays log10 of IC50 of -0.30

According to the records, this molecule `CCCCS(=O)(=O)N[C@H](CC(=O)O)Cc1ccc(OCCCC2CCNCC2)cc1` displays log10 of IC50 of -0.22

According to the records, this molecule `CCCCCC(=O)N[C@@H](Cc1ccc(OCCCCCCN)cc1)C(=O)O` displays log10 of IC50 of 0.70

According to the records, this molecule `CN1CCN(CCCOc2ccc(C[C@H](NC(=O)OCc3ccccc3)C(=O)O)cc2)CC1` displays log10 of IC50 of 0.72

According to the records, this molecule `NCCCCCCOc1ccc(C[C@H](NS(=O)(=O)Cc2ccccc2)C(=O)O)cc1` displays log10 of IC50 of 0.28

According to the records, this molecule CC(=O)N[C@H]1CSSC[C@@H](C(=O)O)NC(=O)[C@H](CC(=O)O)NC(=O)CNC(=O)[C@H](CCCNC(=N)N)NC1=O (Ac-CRGDC-OH; disulfide 1-5) displays log10 of IC50 of -0.17

According to the records, this molecule `O=C(O)[C@H](Cc1ccc(OCCCCC2CCNCC2)cc1)NS(=O)(=O)/C=C/c1ccccc1` displays log10 of IC50 of -1.37

According to the records, this molecule `O=C(O)[C@H](Cc1ccc(OCCCCC2CCNCC2)cc1)NS(=O)(=O)c1cccs1` displays log10 of IC50 of -1.82

According to the records, this molecule `CCCC(=O)N[C@@H](Cc1ccc(OCCCCCCN)cc1)C(=O)O` displays log10 of IC50 of 0.76

According to the records, this molecule `NCCCCCCOc1ccc(C[C@H](NC(=O)c2ccccc2)C(=O)O)cc1` displays log10 of IC50 of 1.00

According to the records, this molecule `CCCCS(=O)(=O)N[C@H](CC(=O)O)Cc1ccc(OCCCCC2CCNCC2)cc1` displays log10 of IC50 of -0.85

According to the records, this molecule `O=C(N[C@@H](Cc1ccc(OCCCC2CCNCC2)cc1)C(=O)O)OCc1ccccc1` displays log10 of IC50 of 0.79

According to the records, this molecule `O=C(N[C@@H](Cc1ccc(OCCCCN2CCNCC2)cc1)C(=O)O)OCc1ccccc1` displays log10 of IC50 of -0.30

According to the records, this molecule `CC(C)(C)NCCCOc1ccc(C[C@H](NC(=O)OCc2ccccc2)C(=O)O)cc1` displays log10 of IC50 of 1.45

According to the records, this molecule `CCCS(=O)(=O)N[C@@H](Cc1ccc(OCCCCC2CCNCC2)cc1)C(=O)O` displays log10 of IC50 of -1.64

According to the records, this molecule `CC(=O)N[C@@H](Cc1ccc(OCCCCCCN)cc1)C(=O)O` displays log10 of IC50 of 1.26

According to the records, this molecule `CCCCC(=O)N[C@@H](Cc1ccc(OCCCCC2CCNCC2)cc1)C(=O)O` displays log10 of IC50 of -1.33

According to the records, this molecule `O=C(CCc1ccccc1)N[C@@H](Cc1ccc(OCCCCC2CCNCC2)cc1)C(=O)O` displays log10 of IC50 of -1.00

According to the records, this molecule `CCC(=O)N[C@@H](Cc1ccc(OCCCCC2CCNCC2)cc1)C(=O)O` displays log10 of IC50 of -0.98

According to the records, this molecule `O=C(N[C@@H](Cc1ccc(OCCCCCN2CCNCC2)cc1)C(=O)O)OCc1ccccc1` displays log10 of IC50 of 0.04
